Biological target: interaction between VCAM-1 and VLA-4 (Homo sapiens, UniProt P05556+P13612)
Construct: the VLA-4 integrins, are supplied in their natural form as surface molecules on human U937 cells; The partner hVCAM-1(1-3)-IgG was secreted by transfected COS cells (ATCC CRL1651) and used as culture supernatant
Sequence (P13612 34-1032): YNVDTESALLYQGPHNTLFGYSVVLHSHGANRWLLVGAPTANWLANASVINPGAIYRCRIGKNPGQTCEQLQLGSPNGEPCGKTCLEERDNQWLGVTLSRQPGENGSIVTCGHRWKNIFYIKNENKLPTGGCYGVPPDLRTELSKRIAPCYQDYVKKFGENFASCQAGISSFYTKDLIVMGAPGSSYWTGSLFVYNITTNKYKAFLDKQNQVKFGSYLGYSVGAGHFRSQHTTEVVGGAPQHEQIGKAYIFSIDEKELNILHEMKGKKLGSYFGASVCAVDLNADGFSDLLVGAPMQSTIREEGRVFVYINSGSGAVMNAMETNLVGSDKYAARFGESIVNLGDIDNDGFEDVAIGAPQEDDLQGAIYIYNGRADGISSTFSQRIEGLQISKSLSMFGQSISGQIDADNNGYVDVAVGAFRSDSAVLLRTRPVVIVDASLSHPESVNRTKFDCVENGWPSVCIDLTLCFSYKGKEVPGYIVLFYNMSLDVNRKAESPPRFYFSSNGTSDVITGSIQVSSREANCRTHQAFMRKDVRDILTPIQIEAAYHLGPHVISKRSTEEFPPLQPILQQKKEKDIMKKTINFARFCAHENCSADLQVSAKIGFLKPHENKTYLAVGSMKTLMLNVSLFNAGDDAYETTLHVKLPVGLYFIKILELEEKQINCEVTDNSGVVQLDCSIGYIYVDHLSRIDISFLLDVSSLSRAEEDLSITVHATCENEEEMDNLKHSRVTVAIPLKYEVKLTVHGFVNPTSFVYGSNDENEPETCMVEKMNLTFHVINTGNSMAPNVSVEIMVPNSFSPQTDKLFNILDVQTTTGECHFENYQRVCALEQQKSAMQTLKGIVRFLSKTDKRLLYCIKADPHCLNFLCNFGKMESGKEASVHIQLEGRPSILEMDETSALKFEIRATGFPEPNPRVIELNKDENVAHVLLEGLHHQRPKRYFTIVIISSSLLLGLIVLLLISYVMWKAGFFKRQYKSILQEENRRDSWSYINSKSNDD
Sequence (P05556 21-798): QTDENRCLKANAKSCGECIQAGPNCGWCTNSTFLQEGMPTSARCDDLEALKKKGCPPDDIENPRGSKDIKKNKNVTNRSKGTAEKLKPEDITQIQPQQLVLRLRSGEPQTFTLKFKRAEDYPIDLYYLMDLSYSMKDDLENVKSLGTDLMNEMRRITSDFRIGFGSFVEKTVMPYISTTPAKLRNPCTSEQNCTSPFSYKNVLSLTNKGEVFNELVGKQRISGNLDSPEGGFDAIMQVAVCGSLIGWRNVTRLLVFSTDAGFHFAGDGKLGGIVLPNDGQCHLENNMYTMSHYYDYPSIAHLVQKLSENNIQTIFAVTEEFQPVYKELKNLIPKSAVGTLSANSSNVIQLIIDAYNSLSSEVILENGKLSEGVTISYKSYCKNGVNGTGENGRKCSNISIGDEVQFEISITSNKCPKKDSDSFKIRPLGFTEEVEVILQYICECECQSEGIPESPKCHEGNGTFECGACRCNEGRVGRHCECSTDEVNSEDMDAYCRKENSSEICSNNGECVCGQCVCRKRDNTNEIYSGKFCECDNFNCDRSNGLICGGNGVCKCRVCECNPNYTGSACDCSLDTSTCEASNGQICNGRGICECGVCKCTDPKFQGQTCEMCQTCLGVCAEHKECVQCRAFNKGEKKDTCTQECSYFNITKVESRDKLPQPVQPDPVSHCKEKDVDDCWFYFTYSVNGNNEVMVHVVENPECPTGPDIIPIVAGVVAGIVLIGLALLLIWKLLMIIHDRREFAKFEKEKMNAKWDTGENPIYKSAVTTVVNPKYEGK
Assay: U937/VCAM-1 cell adhesion test: adhesion of U937 cells to hVCAM-1(1-3)-IgG
Settings: human U937 cells (ATCC CRL 1593) adhering to hVCAM-1(1-3)-IgG; concentration giving 50% inhibition of adhesion
pIC50: −log10 of the molar value.
measurement name: pIC50

molecule=CC(C)C[C@@H](C(=O)N[C@H](C)CC(=O)O)N1C(=O)N(Cc2ccc(OCc3ccccc3)cc2)C(C)(C)C1=O tgt="interaction between VCAM-1 and VLA-4 (Homo sapiens, UniProt P05556+P13612)" recorded_measurement=5.54
molecule="CC(C)C[C@@H](C(=O)NC(CC(=O)O)c1ccccc1F)N1C(=O)N(Cc2ccc(/C=C/c3ccccc3)cc2)C(C)(C)C1=O (some centres unmarked)" tgt="interaction between VCAM-1 and VLA-4 (Homo sapiens, UniProt P05556+P13612)" recorded_measurement=4.82
molecule=CC(C)C[C@@H](C(=O)N[C@H](CC(=O)O)c1ccc2c(c1)OCO2)N1C(=O)N(Cc2ccc(Oc3ccccc3)cc2)C(C)(C)C1=O tgt="interaction between VCAM-1 and VLA-4 (Homo sapiens, UniProt P05556+P13612)" recorded_measurement=4.79
molecule=CC(C)C[C@@H](C(=O)N[C@H](C)CC(=O)O)N1C(=O)N(Cc2ccc(CCc3ccccc3)cc2)C(C)(C)C1=O tgt="interaction between VCAM-1 and VLA-4 (Homo sapiens, UniProt P05556+P13612)" recorded_measurement=3.93
molecule="COc1ccc(C(CC(=O)O)NC(=O)[C@H](CC(C)C)N2C(=O)N(Cc3ccc(/C=C/c4ccccc4)cc3)C(C)(C)C2=O)cc1F (some centres unmarked)" tgt="interaction between VCAM-1 and VLA-4 (Homo sapiens, UniProt P05556+P13612)" recorded_measurement=4.76
molecule=CC(C)C[C@@H](C(=O)NCCC(=O)O)N1C(=O)N(Cc2ccc(/C=C/c3ccccc3)cc2)C(C)(C)C1=O tgt="interaction between VCAM-1 and VLA-4 (Homo sapiens, UniProt P05556+P13612)" recorded_measurement=4.56
molecule="COc1cccc(C(CC(=O)O)NC(=O)[C@H](CC(C)C)N2C(=O)N(Cc3ccc(/C=C/c4ccccc4)cc3)C(C)(C)C2=O)c1 (some centres unmarked)" tgt="interaction between VCAM-1 and VLA-4 (Homo sapiens, UniProt P05556+P13612)" recorded_measurement=4.61
molecule="CC(C)C[C@@H](C(=O)NC(CC(=O)O)c1ccc(Cl)cc1)N1C(=O)N(Cc2ccc(/C=C/c3ccccc3)cc2)C(C)(C)C1=O (some centres unmarked)" tgt="interaction between VCAM-1 and VLA-4 (Homo sapiens, UniProt P05556+P13612)" recorded_measurement=4.44
molecule=CC(C)C[C@@H](C(=O)N[C@H](CC(=O)O)c1ccccc1)N1C(=O)N(Cc2ccc(/C=C/c3ccccc3)cc2)C(C)(C)C1=O tgt="interaction between VCAM-1 and VLA-4 (Homo sapiens, UniProt P05556+P13612)" recorded_measurement=6.25
molecule="CC(C)C[C@@H](C(=O)NC(CC(=O)O)c1ccc(F)cc1)N1C(=O)N(Cc2ccc(/C=C/c3ccccc3)cc2)C(C)(C)C1=O (some centres unmarked)" tgt="interaction between VCAM-1 and VLA-4 (Homo sapiens, UniProt P05556+P13612)" recorded_measurement=4.74
molecule=CC(C)C[C@@H](C(=O)N[C@H](C)CC(=O)O)N1C(=O)N(Cc2ccc(/C=C/c3ccccc3)cc2)C(C)(C)C1=O tgt="interaction between VCAM-1 and VLA-4 (Homo sapiens, UniProt P05556+P13612)" recorded_measurement=5.49
molecule="Cc1cccc(C(CC(=O)O)NC(=O)[C@H](CC(C)C)N2C(=O)N(Cc3ccc(/C=C/c4ccccc4)cc3)C(C)(C)C2=O)c1 (some centres unmarked)" tgt="interaction between VCAM-1 and VLA-4 (Homo sapiens, UniProt P05556+P13612)" recorded_measurement=4.19
molecule=Cc1ccccc1/C=C/c1ccc(CN2C(=O)N([C@@H](CC(C)C)C(=O)N[C@H](CC(=O)O)c3ccccc3)C(=O)C2(C)C)cc1 tgt="interaction between VCAM-1 and VLA-4 (Homo sapiens, UniProt P05556+P13612)" recorded_measurement=6.74
molecule="CCCCc1ccc(C(CC(=O)O)NC(=O)[C@H](CC(C)C)N2C(=O)N(Cc3ccc(/C=C/c4ccccc4)cc3)C(C)(C)C2=O)cc1 (some centres unmarked)" tgt="interaction between VCAM-1 and VLA-4 (Homo sapiens, UniProt P05556+P13612)" recorded_measurement=4.46
molecule="CC(C)C[C@@H](C(=O)NC(CC(=O)O)c1cccc(F)c1)N1C(=O)N(Cc2ccc(/C=C/c3ccccc3)cc2)C(C)(C)C1=O (some centres unmarked)" tgt="interaction between VCAM-1 and VLA-4 (Homo sapiens, UniProt P05556+P13612)" recorded_measurement=4.21
molecule=CC(C)C[C@@H](C(=O)N[C@H](CC(=O)O)c1ccc2c(c1)OCO2)N1C(=O)N(Cc2ccc(/C=C/c3ccccc3)cc2)C(C)(C)C1=O tgt="interaction between VCAM-1 and VLA-4 (Homo sapiens, UniProt P05556+P13612)" recorded_measurement=6.82
molecule=Cc1ccccc1/C=C/c1ccc(CN2C(=O)N([C@@H](CC(C)C)C(=O)N[C@H](C)CC(=O)O)C(=O)C2(C)C)cc1 tgt="interaction between VCAM-1 and VLA-4 (Homo sapiens, UniProt P05556+P13612)" recorded_measurement=5.70

Ref: patent US6667334B1
